system-under-test: Bcl-xL (Homo sapiens, UniProt Q07817)
Construct: Measured levels of Bcl-xL protein of HCT116 cells treated with the tested compounds; host or cells: HCT116
Sequence (Q07817 whole entry): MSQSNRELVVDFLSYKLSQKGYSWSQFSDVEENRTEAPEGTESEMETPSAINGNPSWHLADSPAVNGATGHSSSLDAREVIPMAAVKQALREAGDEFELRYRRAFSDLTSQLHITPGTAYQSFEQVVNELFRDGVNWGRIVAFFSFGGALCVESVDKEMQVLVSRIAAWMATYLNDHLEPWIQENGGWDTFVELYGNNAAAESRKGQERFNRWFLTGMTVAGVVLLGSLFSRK
test-protocol: HCT116 Bcl-xL degradation, capillary-based immunoassay (WES)
Assay type: cell-based
experimental-parameters: HCT116, 24 h, 9-point serial dilution
experimental-readout: DC50 (pM)

# annotated cases, reported DC50 shown
>  <compound>
CN[C@@H](C)C(=O)N[C@H](C(=O)N1CCC[C@H]1c1nc(C(=O)c2cccc(OCCCCCCCCCCN(C)CCOC34CC5(C)CC(C)(CC(Cn6ncc(-c7ccc(N8CCCc9c8nnc(Nc8nc%10ccccc%10s8)c9C)nc7C(=O)O)c6C)(C5)C3)C4)c2)cs1)C1CCCCC1 [Example 98]

>  <DC50 / pM>
362

$$$$
>  <compound>
CN[C@@H](C)C(=O)N[C@H](C(=O)N1CCC[C@H]1c1nc(C(=O)c2cccc(OCCN(C)CCOC34CC5(C)CC(C)(CC(Cn6ncc(-c7ccc(N8CCCc9c8nnc(Nc8nc%10ccccc%10s8)c9C)nc7C(=O)O)c6C)(C5)C3)C4)c2)cs1)C1CCCCC1 [Example 101]

>  <DC50 / pM>
612

$$$$
>  <compound>
Cc1cc(N(CCCCN(C)C(=O)CCCCCCCCCC(=O)N[C@H](C(=O)N2C[C@H](O)C[C@H]2C(=O)N[C@@H](C)c2ccc(-c3scnc3C)cc2)C(C)(C)C)c2ccc(-c3cnn(CC45CC6(C)CC(C)(C4)CC(OCCN(C)C)(C6)C5)c3C)c(C(=O)O)n2)nnc1Nc1nc2ccccc2s1 [Example 114]

>  <DC50 / pM>
2670

$$$$
>  <compound>
CNC(=O)c1nc(N2CCCc3c2nnc(Nc2nc4ccccc4s2)c3C)ccc1-c1cnn(CC23CC4(C)CC(C)(C2)CC(OCCN(C)CCCCCCCCCCCCCC(=O)N[C@H](C(=O)N2C[C@H](O)C[C@H]2C(=O)N[C@@H](C)c2ccc(-c5scnc5C)cc2)C(C)(C)C)(C4)C3)c1C [Example 156]

>  <DC50 / pM>
14500

$$$$
>  <compound>
Cc1ncsc1-c1ccc([C@H](C)NC(=O)[C@@H]2C[C@@H](O)CN2C(=O)[C@@H](NC(=O)CCCCCCCCCCCN(C)CCOC23CC4(C)CC(C)(CC(Cn5ncc(-c6ccc(N7CCCc8c7nnc(Nc7nc9ccccc9s7)c8C)nc6C(=O)O)c5C)(C4)C2)C3)C(C)(C)C)cc1 [Example 2]

>  <DC50 / pM>
286

$$$$

[P] Cc1c(Nc2nc3ccccc3s2)nnc2c1CCCN2c1ccc(-c2cnn(CC34CC5(C)CC(C)(C3)CC(OCCN(C)CCCCCCCCCCCOc3ccc6c(c3)C(=O)N(C3CCC(=O)NC3=O)C6=O)(C5)C4)c2C)c(C(=O)O)n1 (stereo not shown) [Example 105]
[Q] Cc1ncsc1-c1ccc([C@H](C)NC(=O)[C@@H]2C[C@@H](O)CN2C(=O)[C@@H](NC(=O)CCCCCCCCCCCCCN(C)CCOC23CC4(C)CC(C)(CC(Cn5ncc(-c6ccc(N7CCCc8c7nnc(Nc7nc9ccccc9s7)c8C)nc6C(=O)O)c5C)(C4)C2)C3)C(C)(C)C)cc1 [Example 4]
Data request: Short answer wanted: higher DC50, P or Q ? // caller expects the label of the chosen entry
Data returned: Q
(Q: 279 pM, P: 44.7 pM)
